Target: human lipoxygenase-5 (LOX-5) (Homo sapiens, UniProt P09917)
Construct: purchased BioVision K980
Sequence (P09917 1-674): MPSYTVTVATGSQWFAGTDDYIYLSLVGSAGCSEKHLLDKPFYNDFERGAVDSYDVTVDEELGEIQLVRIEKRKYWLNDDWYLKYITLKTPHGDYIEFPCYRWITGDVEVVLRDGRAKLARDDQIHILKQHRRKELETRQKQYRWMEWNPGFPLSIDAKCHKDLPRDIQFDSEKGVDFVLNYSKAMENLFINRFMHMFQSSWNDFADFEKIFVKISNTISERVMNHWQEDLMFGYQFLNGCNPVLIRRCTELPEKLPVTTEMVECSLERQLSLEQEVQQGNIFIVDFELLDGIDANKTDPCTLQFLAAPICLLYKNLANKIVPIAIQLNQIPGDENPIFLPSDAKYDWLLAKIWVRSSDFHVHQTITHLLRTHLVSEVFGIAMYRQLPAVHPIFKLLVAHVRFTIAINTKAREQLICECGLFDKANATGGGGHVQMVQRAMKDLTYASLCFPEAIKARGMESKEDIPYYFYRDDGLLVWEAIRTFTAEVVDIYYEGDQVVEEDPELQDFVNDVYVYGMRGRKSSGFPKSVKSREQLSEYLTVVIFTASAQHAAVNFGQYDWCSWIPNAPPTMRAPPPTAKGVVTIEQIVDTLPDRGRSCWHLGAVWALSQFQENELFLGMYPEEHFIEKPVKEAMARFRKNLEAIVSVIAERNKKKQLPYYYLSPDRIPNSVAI
Assay: Human LOX-5 inhibitory assay
Type: biochemical
Details: human LOX-5, duplicate
endpoint.name: IC50 (µM)
Write the number in µM without appending the unit.

Q. If you can, please state the reported IC50 value of COc1ccc(-c2cc3cc4c(=O)c(C=O)coc4cc3o2)cc1 .
A. 15.3

====

# Lookup of reported IC50 keyed by entry
molecular target: BChE (Homo sapiens, UniProt P06276); construct: purchased cloud-clone corp., purchased through BIOCOM Africa (Pty) Ltd. RPC348Hu0 2_100; assay: biochemical; conditions: Ellman's method, triplicate
Sequence (P06276 29-602): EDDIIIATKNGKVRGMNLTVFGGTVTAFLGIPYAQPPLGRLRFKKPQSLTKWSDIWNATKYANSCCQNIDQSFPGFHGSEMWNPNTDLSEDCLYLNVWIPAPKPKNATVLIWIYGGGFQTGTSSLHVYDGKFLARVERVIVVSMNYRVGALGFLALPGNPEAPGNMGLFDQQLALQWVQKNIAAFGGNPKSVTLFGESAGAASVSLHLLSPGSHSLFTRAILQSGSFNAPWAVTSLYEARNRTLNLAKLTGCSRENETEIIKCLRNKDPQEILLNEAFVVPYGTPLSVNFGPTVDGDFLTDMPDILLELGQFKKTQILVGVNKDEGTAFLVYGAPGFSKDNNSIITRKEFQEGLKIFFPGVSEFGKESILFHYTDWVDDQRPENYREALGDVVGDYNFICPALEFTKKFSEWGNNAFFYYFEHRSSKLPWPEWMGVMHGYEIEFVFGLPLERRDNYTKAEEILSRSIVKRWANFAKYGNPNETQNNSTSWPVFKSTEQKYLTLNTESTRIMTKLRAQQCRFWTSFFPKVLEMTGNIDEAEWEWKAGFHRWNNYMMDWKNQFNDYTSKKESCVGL
Write the number in µM without appending the unit.

Recorded results for 8 compounds are shown here.
chemical_string=COc1cc(OC)cc(-c2cc3cc4c(=O)c(C=O)coc4cc3o2)c1 test_result=41.2
chemical_string=O=Cc1coc2cc3oc(C4=CCCCC4)cc3cc2c1=O test_result=34.8
chemical_string=O=c1c(C=NNc2ccc(C(F)(F)F)cc2)coc2cc3oc(-c4cccc(Cl)c4)cc3cc12 test_result=7.2
chemical_string=O=c1c(C=NNc2ccc(C(F)(F)F)cc2)coc2cc3oc(-c4cccc(F)c4)cc3cc12 test_result=11.2
chemical_string=O=Cc1coc2cc3oc(-c4cccc(Cl)c4)cc3cc2c1=O test_result=21.6
chemical_string=COc1cc(OC)cc(-c2cc3cc4c(=O)c(C=NNc5ccc(C(F)(F)F)cc5)coc4cc3o2)c1 test_result=31.2
chemical_string=O=c1c(C=NNc2ccc(C(F)(F)F)cc2)coc2cc3oc(-c4ccc(Cl)cc4)cc3cc12 test_result=24.6
chemical_string=Cc1ccc(-c2cc3cc4c(=O)c(C=O)coc4cc3o2)cc1 test_result=28.1

Q. If you can, please state the reported IC50 value of O=Cc1coc2cc3oc(-c4ccc(F)cc4)cc3cc2c1=O .
A. 15.7

Q. If you can, please state the reported IC50 value of COc1ccc(-c2cc3cc4c(=O)c(C=O)coc4cc3o2)cc1 .
A. 5.1

Q. If you can, please state the reported IC50 value of O=c1c(C=NNc2ccc(C(F)(F)F)cc2)coc2cc3oc(C4=CCCCC4)cc3cc12 .
A. 30.9

Q. If you can, please state the reported IC50 value of COc1ccc(-c2cc3cc4c(=O)c(C=NNc5ccc(C(F)(F)F)cc5)coc4cc3o2)cc1 .
A. 9.6

Q. If you can, please state the reported IC50 value of O=Cc1coc2cc3oc(-c4cccc(F)c4)cc3cc2c1=O .
A. 6.4

Q. If you can, please state the reported IC50 value of O=c1c(C=NNc2ccc(C(F)(F)F)cc2)coc2cc3oc(-c4ccccc4)cc3cc12 .
A. 26.3

Q. If you can, please state the reported IC50 value of O=Cc1coc2cc3oc(-c4ccccc4)cc3cc2c1=O .
A. 12.3

Q. If you can, please state the reported IC50 value of O=Cc1coc2cc3oc(-c4ccc(Cl)cc4)cc3cc2c1=O .
A. 14

Q. If you can, please state the reported IC50 value of O=c1c(C=NNc2ccc(C(F)(F)F)cc2)coc2cc3oc(-c4ccc(F)cc4)cc3cc12 .
A. 14.1

Q. If you can, please state the reported IC50 value of Cc1ccc(-c2cc3cc4c(=O)c(C=NNc5ccc(C(F)(F)F)cc5)coc4cc3o2)cc1 .
A. 35.4
